Attribution: patent US20160280766A1

molecular target: T1, FcγRIIIA having a Val residue at polymorphic site 158 (human, UniProt P08637 17-208); assay: ratio of SPR KDs, reference Fc-WT
T1 construct: also called FcγRIIIA-158V; CD16a; not shown: His-tag fused to the C-terminus
T1 sequence (P08637 17-208 F176V): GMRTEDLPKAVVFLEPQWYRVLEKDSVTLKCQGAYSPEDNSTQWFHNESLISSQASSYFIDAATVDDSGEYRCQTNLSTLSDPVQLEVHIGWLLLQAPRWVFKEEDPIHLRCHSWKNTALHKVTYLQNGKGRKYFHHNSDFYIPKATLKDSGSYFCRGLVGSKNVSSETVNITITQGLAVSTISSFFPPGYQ
value kind: fold decrease in binding (Fc-variant KD/Fc-WT KD) (fold)
// return numeric value only (unit: fold, not printed)

{"columns": ["binder", "endpoint result"],
 "data": [
  ["IgG1 Fc variant Fc-226^hg/290^hg (other, N-linked glycans at Asn297 and at engineered Asn226 and Asn290 (IgG1 heavy chain positions), Both CPP (226-228) and KPR (290-292) replaced by NST) EPKSCDKTHTNSTCPAPELLGGPSVFLFPPKPKDTLMISRTPEVTCVVVDVSHEDPEVKFNWYVDGVEVHNAKTNSTEEQYNSTYRVVSVLTVLHQDWLNGKEYKCKVSNKALPAPIEKTISKAKGQPREPQVYTLPPSREEMTKNQVSLTCLVKGFYPSDIAVEWESNGQPENNYKTTPPVLDSDGSFFLYSKLTVDKSRWQQGNVFSCSVMHEALHNHYTQKSLSLSPGK", 8.6],
  ["IgG1 Fc variant Fc-226^hg/290^hg/S298A/E333A/K334A (other, N-linked glycans at Asn297 and at engineered Asn226 and Asn290 (IgG1 heavy chain positions)) EPKSCDKTHTNSTCPAPELLGGPSVFLFPPKPKDTLMISRTPEVTCVVVDVSHEDPEVKFNWYVDGVEVHNAKTNSTEEQYNATYRVVSVLTVLHQDWLNGKEYKCKVSNKALPAPIAATISKAKGQPREPQVYTLPPSREEMTKNQVSLTCLVKGFYPSDIAVEWESNGQPENNYKTTPPVLDSDGSFFLYSKLTVDKSRWQQGNVFSCSVMHEALHNHYTQKSLSLSPGK", 4.8],
  ["IgG1 Fc variant Fc-226^hg/290^hg/S298A (other, N-linked glycans at Asn297 and at engineered Asn226 and Asn290 (IgG1 heavy chain positions)) EPKSCDKTHTNSTCPAPELLGGPSVFLFPPKPKDTLMISRTPEVTCVVVDVSHEDPEVKFNWYVDGVEVHNAKTNSTEEQYNATYRVVSVLTVLHQDWLNGKEYKCKVSNKALPAPIEKTISKAKGQPREPQVYTLPPSREEMTKNQVSLTCLVKGFYPSDIAVEWESNGQPENNYKTTPPVLDSDGSFFLYSKLTVDKSRWQQGNVFSCSVMHEALHNHYTQKSLSLSPGK", 6.3]
]}

// switching to the query binder
Query: Kindly indicate its recorded fold decrease in binding (Fc-variant KD/Fc-WT KD). Item: Fc-226^hg/290^hg/E333A/K334A (other, N-linked glycans at Asn297 and at engineered Asn226 and Asn290 (IgG1 heavy chain positions)) EPKSCDKTHTNSTCPAPELLGGPSVFLFPPKPKDTLMISRTPEVTCVVVDVSHEDPEVKFNWYVDGVEVHNAKTNSTEEQYNSTYRVVSVLTVLHQDWLNGKEYKCKVSNKALPAPIAATISKAKGQPREPQVYTLPPSREEMTKNQVSLTCLVKGFYPSDIAVEWESNGQPENNYKTTPPVLDSDGSFFLYSKLTVDKSRWQQGNVFSCSVMHEALHNHYTQKSLSLSPGK
Result: 17.8
